B1: NELF-E aptamer (parent)
chain: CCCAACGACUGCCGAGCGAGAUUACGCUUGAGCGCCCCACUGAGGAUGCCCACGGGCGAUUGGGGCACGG

# Variants of: B1
# test-name: HiTS-RAP
# test-context: with NELF-E (Drosophila)
measured-property: pKd
The read-out pKd is expressed as -log10 of concentration in moles per litre.

Here's what some known entries look like.
alteration | pKd
G7U G16A | 8.16
A24G U61G | 8.00
C9G C36U | 8.05
C49U | 7.71
A5U G11U | 8.19
C6G G34A | 8.10
A8C U22G | 8.13
C13G C57U | 8.19
A46U | 7.20
C13G A46G | 7.32

Please fill in: pKd reported for G7U G48A = 7.92

Lab book: pKd of A4U A8G noted as 8.21

The variant listed as G18U A19G has a reported pKd of 8.20

Record summary for A19G G20U : reported pKd = 8.20
